So I've got a bunch of molecules here, and I need their cytotoxicity at 10 µM values.
# Protocol details: Toxicity liver stage against HepG2, at 10uM
# Type: cell-based
# Parameters: test concentration 10 uM, cell line HepG2-A16-CD81EGFP
# Condition description: human, HepG2-A16-CD81EGFP cells; read-out: INHIBITION
Be sure to follow the number with its unit.

# annotated cases, reported cytotoxicity at 10 µM shown
- Molecule: "COCCN(C)C[C@H]1C[C@@H](CO)CN(C(=O)c2ccn(C)c(=O)c2)C1"
  Observed result: "2.14%"
- Molecule: "O=C(Cc1cccnc1)N1CCCC(c2cc(C(F)(F)F)[nH]n2)C1 (stereo not drawn)"
  Observed result: "-42.6%"
- Molecule: "CC(=O)N1CC(=O)N(c2cnn(C)c2)CC12CCN(Cc1ccoc1)C2 (stereo not drawn)"
  Observed result: "-9.81%"
- Molecule: "CN(C)C(=O)c1nc2c(n1C)CCN(Cc1ccccc1)C2"
  Observed result: "7.83%"
- Molecule: "Cc1nc(C)n(CC2CCCCN2CCS(C)(=O)=O)n1 (stereo not drawn)"
  Observed result: "-10.9%"
- Molecule: "CS(=O)(=O)c1ncc(CN2CCN3CCCC3C2)n1CC1CCCCC1 (stereo not drawn)"
  Observed result: "-4.9%"

Hey, can you go through the list below and give me cytotoxicity at 10 µM for every item?
1. COCc1cc(N(C)CCc2c(C)n[nH]c2C)ncn1
2. Cc1nccn1-c1cc(CNC(=O)NCC2CCCO2)ccn1 (stereo not drawn)
3. CC(C(=O)NCc1ccc(N2CCCCC2)nc1)n1cncn1 (stereo not drawn)
4. Cn1c(C(=O)N2CCOCC2)nc2c1CCN(c1ncccn1)C2
5. O=C(NCCn1cccn1)Nc1cc(C(=O)N2CCOCC2)ccc1Cl

[out]
0.681%
-7.9%
-10.3%
1.7%
-46.6%

Hey, can you go through the list below and give me cytotoxicity at 10 µM for every item?
1. CNc1nc2c(s1)C(c1ccc(F)cc1Cl)CC(=O)N2 (stereo not drawn)
2. Cn1ncc2c1NC(=O)CSC2c1ccc2c(c1)OCO2 (stereo not drawn)
3. CC(C)c1ccc(CN2CCC(CNS(=O)(=O)C3CC3)C2)cc1 (stereo not drawn)
4. Oc1cc(C2CCCCN2C2CCCC2)nc(-c2ccncc2)n1 (stereo not drawn)

[out]
["4.12%", "0.435%", "-1.37%", "5.94%"]

Hey, can you go through the list below and give me cytotoxicity at 10 µM for every item?
1. O=C1CCCN1CC1CN(C(=O)C2CCOCC2)Cc2nccn2C1 (stereo not drawn)
2. Cc1noc(Cl)c1CC(=O)NCC(C)(O)c1ccc(F)cc1F (stereo not drawn)
3. Cc1nnc(CN2CCN(C(C)c3nc(C4CC4)no3)CC2)o1 (stereo not drawn)

[out]
3.33%
-0.837%
-10.3%
